Value source: PubChem BioAssay (NCI)

Test system: SF-539 CNS
Assay: NCI-60 one-dose screen, 48 h (100 = growth as untreated, 0 = no growth, -100 = all killed)
Details: 10 µM unless noted
About 83,000 compounds went through this panel and 20% of them were active in at least one assay; those are over-represented in the sample as a whole.
// rule not met strictly below 70% in growth; rule met otherwise

1) COc1cccc2c1C(=O)c1c(O)c3c(c(O)c1C2=O)C[C@](O)(C(=O)CO)C[C@H]3O[C@@H]1C[C@@H](NC(=O)CCCN(C)C2(c3ccc(F)cc3)CC3CCC2C3)[C@H](O)[C@@H](C)O1 (stereo partly specified): rule not met
2) O=C1OC(c2ccccc2)C(O)=C1c1ccccc1 (stereo unspecified): rule met
3) CCOc1cc2ncc(C#N)c(Nc3ccc(OCc4cccc(F)c4)c(Cl)c3)c2cc1NC(=O)CC1CCSS1 (stereo unspecified): rule not met

[ask] Is reported growth greater than or equal to 70% here: `COc1ccc(-c2cc(Nc3ccnc(N4CCOCC4)n3)on2)cc1`
[reply] rule not met

[ask] Is reported growth greater than or equal to 70% here: `N=C(N)c1ccc(-c2ccc(-c3ccc4ccccc4c3)s2)s1`
[reply] rule met
